- Procedure details: qHTS assay for small molecule activators of the p53 signaling pathway (AID 651743); further: series mostly up to about 92 µM; % of control where 0% means no effect
- Condition context: HCT-116 p53RE-bla, beta-lactamase FRET ratio, 16 h; hits give high values
Results filed as inconclusive are left out.

| Molecule | Unit tag | activation |
| --- | --- | --- |
| C=CC(C)=O | % | -2.21 |
| CCSC(=O)Cl | % | -1.99 |
| CC(C)Nc1nc(Cl)nc(NC(C)C)n1 | % | -2.19 |
| CCCC(=O)Cl | % | -0.024 |
| CNC(=O)Oc1cccc2c1OC(C)(C)O2 | % | 0.009 |
| C/C=C/c1ccc2c(c1)OCO2 | % | -2.48 |
| c1nc[nH]n1 | % | -1.22 |
| CC(C)(C)OOC(C)(C)C | % | -4.97 |
| CCS(=O)CCSP(=O)(OC)OC (configuration not stated) | % | -0.772 |
| C=CCOC(C)=O | % | -2.44 |
| c1ccc2c(c1)CCCC2 | % | 2.11 |
| CCCSC(=O)Cl | % | -3.85 |
| CCc1cccc(C)c1N(C(=O)CCl)C(C)COC (configuration not stated) | % | -2.17 |
| C=C(Cl)Cl | % | -1.18 |
| C[C@H]1CCCC(=O)CCC/C=C/c2cc(O)cc(O)c2C(=O)O1 | % | 20.6 |
| O=NN(CCO)CCO | % | -2.59 |
| CC(C)(C)OO | % | 0.296 |
